median log2 fold change by entry:
- Target or test system: GABARAP, O95166
- Sequence (O95166 whole entry, the tested form may be a part): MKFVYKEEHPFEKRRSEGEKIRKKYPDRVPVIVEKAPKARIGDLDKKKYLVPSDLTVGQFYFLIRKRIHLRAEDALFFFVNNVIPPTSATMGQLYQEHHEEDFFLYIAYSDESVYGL
- Assay: median log2 fold change of GCK-ALFA target abundance (FLAG IP / Myc IP barcode read proportion) (log2 ratio); each designed protein is fused to an ALFA-tag nanobody in HEK293 cells to bring the named protein to FLAG-tagged glucokinase (GCK); Myc marks an untargeted standard; higher = target protein stabilised (more abundant)
- Test context: target protein: 3xFLAG-MCP-GCK-ALFA reporter; HEK293 landing pad (RPLP)
The full ranking holds about 4,500 sequences; the median of “median log2 fold change of GCK-ALFA target abundance (FLAG IP / Myc IP barcode read proportion)” is about 0.078, and the lowest 2% start at about -0.6. This excerpt belongs to a sample that is enriched for the lowest values.
// keep it numeric: no unit symbol after the value

{"columns": ["Binder", "median log2 fold change"],
 "data": [
  ["GBRAP_52_6101 (protein) AAAEAEALVERLLALVRAGREAEARAEAAALAAEMDEARLRVLTEALAARARAAAPEDLDAVWRLAELLADELEAAGWPDVLVDDLLAATAAALYERELA", -0.279],
  ["GBRAP_122_2955 (protein) SKEEEVERLVEETVEAAKKGDFAATILEALKEAAERFDAESLIRLAERLAERARELGKEAEAALAFATAAQWLLEERPELAEAADRLLELADELLDLLEE", -0.119],
  ["GBRAP_11_2643 (protein) KKEKLKKAAELAKKAIEALKKLLEEGVDNEELRKKIEELLEELSKLVKEYADESLKKLVEIAKELWKKSLEDPENAEEYVKNLLAALRVLSAELEEEIEE", 0.271]
]}

IN: Fill in the blank: the reported median log2 fold change of GBRAP_166_4925 (protein) MIEEKVEEARKRLEEVIREGRADPSLTDGQITAAMAYEVAEMLKDIEDEEEKLAVVEEGLRLAKEEGLDPRRLATLTASLYGFSDEERERIDEITEKILA is ____.
OUT: 0.302
